Test system: MOLT-4 leukemia
Test: NCI tumour cell line growth inhibition, 48 h
quantity: TGI

Recorded results for 4 compounds are shown here.
Entry C=C1C(=O)O[C@H]2[C@H]1CC/C(COC(=O)NCCc1c[nH]c3ccccc13)=C\CC[C@@]1(C)O[C@@H]21 has what TGI?
6.59 µM

Moving on to O=C1OC2(c3ccccc31)c1cc(I)c(O)c(I)c1Oc1c2cc(I)c(O)c1I
> 100 µM

Try the compound CCCN1C(=O)/C(=C/c2ccc(O)cc2)SC1=Nc1ccccc1
> 100 µM

Also check CC(=O)NNc1nc(C)c(C(/C=C/c2ccccc2O)=N/NC(=O)c2ccncc2)s1
> 100 µM

Continuing:
What value of TGI has been reported for the following compound? CC(=O)[CH-]C(C)=O.CC(=O)[CH-]C(C)=O.CC(=O)[CH-]C(C)=O.[Cl-].[Hf+4]
> 100 µM

# iterate: Cc1c(Cl)c(=O)oc2cc(OCC(=O)c3ccccc3)ccc12
> 100 µM

Another compound to look at: O=C1c2scnc2-c2nccc3c2c1nc1ccccc13
> 100 µM
